- Experimental Details: log P (HPLC/MS data of the preparation examples)
- Condition Notes: HPLC (LC-MS) method [b]: pH 2.7, 0.1% formic acid in water and acetonitrile, linear gradient 10% to 95% acetonitrile; EEC directive 79/831 Annex V.A8
Measured log p accompanies every entry in the list below.

Molecule | log p
Cn1ncnc1C(=NOCc1csc(NC(=O)CCc2ccccc2)n1)c1ncc(C(F)(F)F)cc1Cl | 3.51^[b]
CCCCCOC(=O)Nc1nc(CON=C(c2ccsc2)c2cncn2C)cs1 (single isomer, unassigned) [Example 462] | 2.23^[b]
Cn1ncnc1C(=NOCc1cccc(NC(=O)Cc2ccccc2)n1)c1ncc(C(F)(F)F)cc1Cl | 3.46^[b]
CCCC(=O)Nc1cccc(CON=C(c2ccsc2)c2cncn2C)n1 | 1.52^[b]
CCCCCC(=O)Nc1nc(CON=C(c2ccsc2)c2cncn2C)cs1 | 1.99^[b]
Cn1cncc1C(=NOCc1cccc(N2C(=O)c3ccccc3C2=O)n1)c1ccsc1 | 1.73^[b]
CCCCCC(=O)Nc1nc(CON=C(c2cc(C(F)(F)F)ccn2)c2ncccc2C)cs1 | 3.76^[b]
CCCCCOC(=O)Nc1nc(CON=C(c2ncc(C(F)(F)F)cc2Cl)c2ncnn2C)cs1 | 3.94^[b]
CC(C)CC(=O)Nc1ccnc(CON=C(c2ncc(C(F)(F)F)cc2Cl)c2ncnn2C)n1 | 3.06^[b]
CCCCCOC(=O)Nc1nc(CON=C(c2cccs2)c2cncn2C)cs1 (single isomer, unassigned) [Example 460] | 2.25^[b]
Cn1ncnc1C(=NOCc1csc(NC(=O)Cc2ccccc2)n1)c1ncc(C(F)(F)F)cc1Cl | 3.27^[b]

This collection of values is drawn from patent US8981111B2.
